B1: MFF (parent)
chain: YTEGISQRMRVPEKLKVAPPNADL

# Variants of: B1
# procedure-summary: protein stability index of a GFP-peptide fusion (GPS, HEK-293T) (PSI 1-6); higher = more stable;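 note: lentivirally expressed fusions sorted by FACS into six bins by GFP to DsRed ratio, PSI derived from sequencing read proportions per bin multiplied by bin number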
# run-parameters: c terminus: a fixed tail appended
Quick list: protein stability index per entry.

variant-descriptor	protein stability index
V17H	2.9
I5F	2.13
R8W	2.3
E13A	2.95
L15S	3.15
K14S	3.38
R8T	2.76
R10F	1.44
V17A	2.82
A18Q	3.24
Q7R	2.81
M9T	2.74
N21W	2
A18F	2.2
Y1V	4.25
V11I	2.96
Y1Q	4.41
R10I	2.97
M9F	3.02
V11A	2.89
K16A	2.68
D23I	2.29
L24Q	3.14
M9D	3.57
T2Y	3.2
P20D	3.04
Y1E	4.55
P19Q	2.67
N21G	2.72
E3V	2.44
L24Y	2.6
V17W	2.35
K14C	3.07
A22V	3.09
K14V	2.72
A18N	2.78
K14G	3.28
